Tested on: 324938-238-R-J1-PDC complex spheroid growth, % test/control
Assay: Anticancer human tumor 324938-238-R-J1-PDC patient-derived bladder carcinoma cell line growth inhibition [AhR]
Settings: second compound 0.316 µM; first compound 0.003 µM; stronger effect = lower value
readout label: viability, T/C (%)

                                   molecule  unit_string  result
0  Nc1ncn(C2CC(O)C(CO)S2)c(=O)n1 (stereo not drawn) + Cc1cncc(-c2nc(NCCc3c[nH]c4ccccc34)c3ncn(C(C)C)c3n2)c1            %     102
1  Nc1ncn(C2CC(O)C(CO)S2)c(=O)n1 (stereo not drawn) + CC(CO)NC(=O)c1cc(-c2ccc(Cl)cc2)nn(-c2cnn(C)c2)c1=O            %    88.4
2  CC(C)CC(NC(=O)C(Cc1ccccc1)NC(=O)c1cnccn1)B(O)O (stereo not drawn) + Cc1ccccc1N=Nc1ccc(NC(=O)c2ccnn2C)c(C)c1            %    84.6

----------
Known viability, T/C of a selection of compounds
System: 324938-238-R-J1-PDC complex spheroid growth, % test/control
Assay: Anticancer human tumor 324938-238-R-J1-PDC cell line growth inhibition [AhR];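 also: spheroids exposed to agents for seven days before viability read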
Conditions: second compound 0.316 µM; first compound 0.00316 µM; stronger effect = lower value
Description: Multicellular complex tumor spheroid response to aryl hydrocarbon receptor antagonists in combination with a variety of drugs and investigational agents in selected tumor cell lines […] Compounds. […] If the clinical Cmax for an agent had not been determined, the highest concentration tested was 10 microM (Table 1). […]
readout label: viability, T/C (%)

compound	system under test	unit string	result
CC[C@@]1(O)C(=O)OCc2c1cc1n(c2=O)Cc2cc3c(CN(C)C)c(O)ccc3nc2-1 + CC(CO)NC(=O)c1cc(-c2ccc(Cl)cc2)nn(-c2cnn(C)c2)c1=O	324938-238-R-J1-PDC complex spheroid growth, % test/control	%	100
CC1COCCN1c1cc(-c2ccnn2C)c2ccnc(-c3ccn[nH]3)c2n1 (centres undefined) + Cc1cncc(-c2nc(NCCc3c[nH]c4ccccc34)c3ncn(C(C)C)c3n2)c1	324938-238-R-J1-PDC complex spheroid growth, % test/control	%	121
Nc1ncn(C2CC(O)C(CO)O2)c(=O)n1 (centres undefined) + CC(CO)NC(=O)c1cc(-c2ccc(Cl)cc2)nn(-c2cnn(C)c2)c1=O	324938-238-R-J1-PDC complex spheroid growth, % test/control	%	98.4
Cn1ncnc1C1c2n[nH]c(=O)c3cc(F)cc(c23)NC1c1ccc(F)cc1 (centres undefined) + Cc1ccccc1N=Nc1ccc(NC(=O)c2ccnn2C)c(C)c1	324938-238-R-J1-PDC complex spheroid growth, % test/control	%	103
Nc1ncn(C2CC(O)C(CO)O2)c(=O)n1 (centres undefined) + Cc1ccccc1N=Nc1ccc(NC(=O)c2ccnn2C)c(C)c1	324938-238-R-J1-PDC complex spheroid growth, % test/control	%	81.9
Nc1ncn(C2CC(O)C(CO)O2)c(=O)n1 (centres undefined) + Cc1cncc(-c2nc(NCCc3c[nH]c4ccccc34)c3ncn(C(C)C)c3n2)c1	324938-238-R-J1-PDC complex spheroid growth, % test/control	%	111
CC[C@@]1(O)C(=O)OCc2c1cc1n(c2=O)Cc2cc3c(CN(C)C)c(O)ccc3nc2-1 + Cc1cncc(-c2nc(NCCc3c[nH]c4ccccc34)c3ncn(C(C)C)c3n2)c1	324938-238-R-J1-PDC complex spheroid growth, % test/control	%	124
CC1COCCN1c1cc(-c2ccnn2C)c2ccnc(-c3ccn[nH]3)c2n1 (centres undefined) + CC(CO)NC(=O)c1cc(-c2ccc(Cl)cc2)nn(-c2cnn(C)c2)c1=O	324938-238-R-J1-PDC complex spheroid growth, % test/control	%	88.6
CC[C@@]1(O)C(=O)OCc2c1cc1n(c2=O)Cc2cc3c(CN(C)C)c(O)ccc3nc2-1 + Cc1ccccc1N=Nc1ccc(NC(=O)c2ccnn2C)c(C)c1	324938-238-R-J1-PDC complex spheroid growth, % test/control	%	94.8

----------
Test system: 324938-238-R-J1-PDC complex spheroid growth, % test/control
Test: Anticancer human tumor 324938-238-R-J1-PDC cell line growth inhibition [AhR];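 also: spheroids exposed to agents for seven days before viability read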
Details: compound alone; run of 07/12/2022
readout label: IC50

In [3]: df
Out[3]:
                                   compound  readout_label   result
0  CC(CO)NC(=O)c1cc(-c2ccc(Cl)cc2)nn(-c2cnn(C)c2)c1=O (stereo unspecified)           IC50  > 10 µM

----------
Test system: 324938-238-R-J1-PDC complex spheroid growth, % test/control
Assay: Anticancer human tumor 324938-238-R-J1-PDC cell line growth inhibition [AhR];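 also: spheroids exposed to agents for seven days before viability read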
Settings: second compound 3.16 µM; first compound 0.0316 µM; stronger effect = lower value
Description: Multicellular complex tumor spheroid response to aryl hydrocarbon receptor antagonists in combination with a variety of drugs and investigational agents in selected tumor cell lines […] Compounds. […] If the clinical Cmax for an agent had not been determined, the highest concentration tested was 10 microM (Table 1). […]
The label is Yes for viability, T/C below 80% and No for viability, T/C equal to or exceeding 80%.

molecule	system under test	class name
CC1COCCN1c1cc(C2(S(C)(=N)=O)CC2)nc(-c2ccnc3[nH]ccc23)n1 (stereo not drawn) + Cc1ccccc1N=Nc1ccc(NC(=O)c2ccnn2C)c(C)c1	324938-238-R-J1-PDC complex spheroid growth, % test/control	Yes
CC1(C)CCC(CN2CCN(c3ccc(C(=O)NS(=O)(=O)c4ccc(NCC5CCOCC5)c([N+](=O)[O-])c4)c(Oc4cnc5[nH]ccc5c4)c3)CC2)=C(c2ccc(Cl)cc2)C1 + Cc1ccccc1N=Nc1ccc(NC(=O)c2ccnn2C)c(C)c1	324938-238-R-J1-PDC complex spheroid growth, % test/control	Yes
COc1cc(Nc2ncc3c(n2)-c2ccc(Cl)cc2C(c2c(F)cccc2OC)=NC3)ccc1C(=O)O + Cc1ccccc1N=Nc1ccc(NC(=O)c2ccnn2C)c(C)c1	324938-238-R-J1-PDC complex spheroid growth, % test/control	Yes
Cn1ncnc1C1c2n[nH]c(=O)c3cc(F)cc(c23)NC1c1ccc(F)cc1 (stereo not drawn) + Cc1cncc(-c2nc(NCCc3c[nH]c4ccccc34)c3ncn(C(C)C)c3n2)c1	324938-238-R-J1-PDC complex spheroid growth, % test/control	No
O=C(C=Cc1cccc(S(=O)(=O)Nc2ccccc2)c1)NO + Cc1ccccc1N=Nc1ccc(NC(=O)c2ccnn2C)c(C)c1	324938-238-R-J1-PDC complex spheroid growth, % test/control	No
CC[C@@]1(O)C(=O)OCc2c1cc1n(c2=O)Cc2cc3c(CN(C)C)c(O)ccc3nc2-1 + CC(CO)NC(=O)c1cc(-c2ccc(Cl)cc2)nn(-c2cnn(C)c2)c1=O	324938-238-R-J1-PDC complex spheroid growth, % test/control	Yes
CC(C)c1c(-c2ccccc2)nc2c(C#N)c[nH]n2c1=O + CC(CO)NC(=O)c1cc(-c2ccc(Cl)cc2)nn(-c2cnn(C)c2)c1=O	324938-238-R-J1-PDC complex spheroid growth, % test/control	Yes

----------
Test system: 324938-238-R-J1-PDC complex spheroid growth, % test/control
Assay: Anticancer human tumor 324938-238-R-J1-PDC cell line growth inhibition [AhR];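 also: spheroids exposed to agents for seven days before viability read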
Details: second compound 0.316 µM; first compound 0.00316 µM; stronger effect = lower value

molecule	viability, T/C / %
Cn1ncnc1C1c2n[nH]c(=O)c3cc(F)cc(c23)NC1c1ccc(F)cc1 (stereo not drawn) + CC(CO)NC(=O)c1cc(-c2ccc(Cl)cc2)nn(-c2cnn(C)c2)c1=O	92.7
Cn1ncnc1C1c2n[nH]c(=O)c3cc(F)cc(c23)NC1c1ccc(F)cc1 (stereo not drawn) + Cc1cncc(-c2nc(NCCc3c[nH]c4ccccc34)c3ncn(C(C)C)c3n2)c1	138
CC1COCCN1c1cc(-c2ccnn2C)c2ccnc(-c3ccn[nH]3)c2n1 (stereo not drawn) + Cc1ccccc1N=Nc1ccc(NC(=O)c2ccnn2C)c(C)c1	104

----------
Known IC50 of a selection of compounds
System: 324938-238-R-J1-PDC complex spheroid growth, % test/control
Assay: Anticancer human tumor 324938-238-R-J1-PDC cell line growth inhibition [AhR];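 also: spheroids exposed to agents for seven days before viability read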
Details: curve of first compound; second compound 10 µM
readout label: IC50

compound	readout label	result
CCN(c1cc(-c2ccc(CN3CCOCC3)cc2)cc(C(=O)NCc2c(C)cc(C)[nH]c2=O)c1C)C1CCOCC1 + Cc1cncc(-c2nc(NCCc3c[nH]c4ccccc34)c3ncn(C(C)C)c3n2)c1	IC50	< 9.49 nM
Nc1ncn(C2CC(O)C(CO)O2)c(=O)n1 (stereo unspecified) + CC(CO)NC(=O)c1cc(-c2ccc(Cl)cc2)nn(-c2cnn(C)c2)c1=O	IC50	> 1000 nM
CC[C@@]1(O)C(=O)OCc2c1cc1n(c2=O)Cc2cc3c(CN(C)C)c(O)ccc3nc2-1 + Cc1cncc(-c2nc(NCCc3c[nH]c4ccccc34)c3ncn(C(C)C)c3n2)c1	IC50	< 0.316 nM
CC1COCCN1c1cc(-c2ccnn2C)c2ccnc(-c3ccn[nH]3)c2n1 (stereo unspecified) + Cc1cncc(-c2nc(NCCc3c[nH]c4ccccc34)c3ncn(C(C)C)c3n2)c1	IC50	< 3.16 nM
COc1ccc([C@@H](O)c2cc(-c3ncnc4cc(N5CCOCC5)ccc34)c(F)cc2Cl)nn1 + CC(CO)NC(=O)c1cc(-c2ccc(Cl)cc2)nn(-c2cnn(C)c2)c1=O	IC50	> 10000 nM
O=C(C=Cc1cccc(S(=O)(=O)Nc2ccccc2)c1)NO + Cc1cncc(-c2nc(NCCc3c[nH]c4ccccc34)c3ncn(C(C)C)c3n2)c1	IC50	< 31.6 nM
